- tested.system: Serine/threonine-protein kinase Sgk2 (Homo sapiens) (UniProt Q9HBY8)
- Sequence (Q9HBY8 whole entry): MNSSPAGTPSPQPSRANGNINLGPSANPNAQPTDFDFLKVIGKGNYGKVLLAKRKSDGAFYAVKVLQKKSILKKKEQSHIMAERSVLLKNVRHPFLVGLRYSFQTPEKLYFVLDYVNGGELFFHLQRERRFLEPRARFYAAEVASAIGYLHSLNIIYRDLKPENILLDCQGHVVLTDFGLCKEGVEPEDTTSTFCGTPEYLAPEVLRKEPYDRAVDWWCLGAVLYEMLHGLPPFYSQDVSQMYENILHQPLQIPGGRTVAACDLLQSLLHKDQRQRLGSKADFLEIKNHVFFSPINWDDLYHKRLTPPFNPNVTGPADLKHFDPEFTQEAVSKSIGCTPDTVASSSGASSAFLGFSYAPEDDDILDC
- study.conditions: at 10 µM

line.notation	measurement.unit	residual activity
CC(C)(C)c1cc(C=C(C#N)C#N)cc(Br)c1O	%	70
CCn1cnc2c(Nc3cccc(Cl)c3)nc(N[C@@H]3CCCC[C@@H]3N)nc21	%	65
c1cc(-c2cnn3cc(-c4ccc(OCCN5CCCCC5)cc4)cnc23)ccn1	%	48
O=[N+]([O-])/C=C/c1ccc2c(c1)OCO2	%	66
O=C1Nc2ccc3ncsc3c2/C1=C/c1c[nH]cn1	%	5
COc1ccc2c(c[n+](C)c3c4cc5c(cc4ccc23)OCO5)c1OC	%	65

====

- tested.system: Serine/threonine-protein kinase Sgk1 (Homo sapiens) (UniProt O00141)
- Sequence (whole entry): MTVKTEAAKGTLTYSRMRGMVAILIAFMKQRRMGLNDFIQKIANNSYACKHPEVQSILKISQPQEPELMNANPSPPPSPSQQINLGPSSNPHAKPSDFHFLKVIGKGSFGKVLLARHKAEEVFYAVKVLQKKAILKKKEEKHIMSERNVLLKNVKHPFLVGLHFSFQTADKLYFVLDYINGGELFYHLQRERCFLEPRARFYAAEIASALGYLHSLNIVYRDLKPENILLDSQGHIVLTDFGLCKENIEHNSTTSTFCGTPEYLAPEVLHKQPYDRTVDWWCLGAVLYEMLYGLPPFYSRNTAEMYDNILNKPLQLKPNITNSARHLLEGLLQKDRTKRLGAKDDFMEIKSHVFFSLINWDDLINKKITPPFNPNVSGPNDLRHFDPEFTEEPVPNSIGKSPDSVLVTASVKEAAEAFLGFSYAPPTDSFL
- study.conditions: at 1 µM
Hi! Could you tag entries with residual activity below 90% as fulfilled, and those at or above as not fulfilled? Much appreciated.

compound	tested.system	qualitative.label
O=C1c2ccccc2-c2nc3nnnn3nc21	Serine/threonine-protein kinase Sgk1 (Homo sapiens) (UniProt O00141)	not fulfilled
O=C1NC(=O)c2c1c1c3ccccc3n3c1c1c2c2ccccc2n1C1CCC3O1	Serine/threonine-protein kinase Sgk1 (Homo sapiens) (UniProt O00141)	fulfilled
COC(=O)[C@@]1(O)C[C@H]2O[C@]1(C)n1c3ccccc3c3c4c(c5c6ccccc6n2c5c31)C(=O)NC4	Serine/threonine-protein kinase Sgk1 (Homo sapiens) (UniProt O00141)	fulfilled
C[S+]([O-])c1ccc(-c2nc(-c3ccc(F)cc3)c(-c3ccncc3)[nH]2)cc1 (stereo unspecified)	Serine/threonine-protein kinase Sgk1 (Homo sapiens) (UniProt O00141)	not fulfilled
COc1cc2ncnc(Nc3ccc(OCc4ccccc4)cc3)c2cc1OC	Serine/threonine-protein kinase Sgk1 (Homo sapiens) (UniProt O00141)	not fulfilled

====

- tested.system: Ribosomal protein S6 kinase alpha-2 (Homo sapiens) (UniProt Q15349)
- Sequence (Q15349 whole entry): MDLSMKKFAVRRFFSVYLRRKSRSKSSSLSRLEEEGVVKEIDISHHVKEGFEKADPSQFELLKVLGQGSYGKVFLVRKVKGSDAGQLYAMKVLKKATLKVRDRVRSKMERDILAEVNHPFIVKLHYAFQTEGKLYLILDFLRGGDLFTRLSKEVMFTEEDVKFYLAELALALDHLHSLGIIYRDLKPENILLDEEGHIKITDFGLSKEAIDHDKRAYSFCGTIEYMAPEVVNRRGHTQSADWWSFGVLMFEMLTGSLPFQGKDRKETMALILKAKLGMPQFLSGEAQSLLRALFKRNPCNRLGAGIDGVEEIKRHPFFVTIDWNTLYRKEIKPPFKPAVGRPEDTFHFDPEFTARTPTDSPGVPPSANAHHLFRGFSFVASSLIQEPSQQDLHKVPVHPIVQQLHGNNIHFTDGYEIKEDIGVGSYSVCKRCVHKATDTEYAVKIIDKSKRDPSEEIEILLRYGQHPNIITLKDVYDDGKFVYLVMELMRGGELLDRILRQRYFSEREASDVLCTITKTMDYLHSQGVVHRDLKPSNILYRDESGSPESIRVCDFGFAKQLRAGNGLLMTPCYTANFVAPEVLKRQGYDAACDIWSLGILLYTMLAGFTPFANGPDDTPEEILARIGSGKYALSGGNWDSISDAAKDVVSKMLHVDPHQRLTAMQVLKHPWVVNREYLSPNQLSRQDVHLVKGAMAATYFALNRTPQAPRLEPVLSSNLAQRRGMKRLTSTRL
- study.conditions: at 1 µM

line.notation	tested.system	residual activity
O=c1[nH]c2ccccc2n1C1CCN(Cc2ccc(-c3nc4cc5[nH]cnc5cc4nc3-c3ccccc3)cc2)CC1	Ribosomal protein S6 kinase alpha-2 (Homo sapiens) (UniProt Q15349)	108%
COc1ccc2c(c1)/C(=C/c1cnc[nH]1)C(=O)N2	Ribosomal protein S6 kinase alpha-2 (Homo sapiens) (UniProt Q15349)	30%
CCn1cnc2c(Nc3cccc(Cl)c3)nc(N[C@@H]3CCCC[C@@H]3N)nc21	Ribosomal protein S6 kinase alpha-2 (Homo sapiens) (UniProt Q15349)	30%
COc1cc2ncnc(Nc3ccc(OCc4ccccc4)cc3)c2cc1OC	Ribosomal protein S6 kinase alpha-2 (Homo sapiens) (UniProt Q15349)	110%
